target: PI3Kα (Homo sapiens (Human), UniProt P42336); conditions: read-out: PI3Kα AlphaScreen ® Ki
Sequence (P42336 whole entry): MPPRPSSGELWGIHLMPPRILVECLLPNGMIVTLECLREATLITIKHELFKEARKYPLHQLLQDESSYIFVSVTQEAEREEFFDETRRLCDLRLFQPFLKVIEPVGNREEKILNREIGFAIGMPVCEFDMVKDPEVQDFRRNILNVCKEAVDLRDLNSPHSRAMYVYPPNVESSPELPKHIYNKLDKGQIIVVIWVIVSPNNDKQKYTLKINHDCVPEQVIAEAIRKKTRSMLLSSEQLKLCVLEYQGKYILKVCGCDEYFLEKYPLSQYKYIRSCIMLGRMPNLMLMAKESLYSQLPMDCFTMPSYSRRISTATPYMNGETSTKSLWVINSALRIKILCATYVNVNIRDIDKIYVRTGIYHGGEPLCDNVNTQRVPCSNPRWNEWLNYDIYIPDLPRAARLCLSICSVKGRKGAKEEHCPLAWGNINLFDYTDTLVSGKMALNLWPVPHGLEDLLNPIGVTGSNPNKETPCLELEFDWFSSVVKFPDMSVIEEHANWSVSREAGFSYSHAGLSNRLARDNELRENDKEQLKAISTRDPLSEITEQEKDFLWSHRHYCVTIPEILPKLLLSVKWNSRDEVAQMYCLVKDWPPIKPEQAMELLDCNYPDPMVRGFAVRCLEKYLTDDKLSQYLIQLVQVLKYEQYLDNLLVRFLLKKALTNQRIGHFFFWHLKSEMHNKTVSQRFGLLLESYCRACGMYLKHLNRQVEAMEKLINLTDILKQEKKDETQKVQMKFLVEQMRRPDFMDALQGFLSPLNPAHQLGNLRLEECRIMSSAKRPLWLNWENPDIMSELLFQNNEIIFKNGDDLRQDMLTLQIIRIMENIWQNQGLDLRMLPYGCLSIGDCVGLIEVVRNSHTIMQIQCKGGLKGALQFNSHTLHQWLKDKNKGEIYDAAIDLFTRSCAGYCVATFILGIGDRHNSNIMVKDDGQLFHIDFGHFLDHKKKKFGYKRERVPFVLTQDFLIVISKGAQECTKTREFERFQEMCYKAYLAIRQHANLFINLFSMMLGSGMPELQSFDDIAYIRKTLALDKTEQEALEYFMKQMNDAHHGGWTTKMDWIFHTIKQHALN
Sequence (P27986 whole entry partner): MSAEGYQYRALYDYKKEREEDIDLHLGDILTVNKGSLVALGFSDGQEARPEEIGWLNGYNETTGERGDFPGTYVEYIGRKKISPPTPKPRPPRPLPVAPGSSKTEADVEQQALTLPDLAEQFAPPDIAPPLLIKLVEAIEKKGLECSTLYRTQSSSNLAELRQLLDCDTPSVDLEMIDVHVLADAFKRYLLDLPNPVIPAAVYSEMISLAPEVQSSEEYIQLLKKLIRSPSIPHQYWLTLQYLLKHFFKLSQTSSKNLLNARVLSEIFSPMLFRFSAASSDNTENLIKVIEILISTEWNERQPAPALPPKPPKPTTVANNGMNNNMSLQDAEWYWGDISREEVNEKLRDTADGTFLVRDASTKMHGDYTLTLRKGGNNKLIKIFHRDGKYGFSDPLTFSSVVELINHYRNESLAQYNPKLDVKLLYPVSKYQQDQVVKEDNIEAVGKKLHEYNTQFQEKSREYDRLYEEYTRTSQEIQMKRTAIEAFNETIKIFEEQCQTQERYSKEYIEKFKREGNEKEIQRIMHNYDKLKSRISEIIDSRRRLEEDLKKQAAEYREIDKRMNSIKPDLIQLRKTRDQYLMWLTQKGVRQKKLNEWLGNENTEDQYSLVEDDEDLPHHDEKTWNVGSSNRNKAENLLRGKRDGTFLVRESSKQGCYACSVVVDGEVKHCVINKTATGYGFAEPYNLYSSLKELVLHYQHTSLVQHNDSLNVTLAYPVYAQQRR
Recorded Ki split into classes low value = under 20 nM, medium value = from 20 nM up to 100 nM, high value = 100 nM and over

| compound | group |
| --- | --- |
| Cc1nc(-c2cc(C(C)N3CCOCC3)cnc2Nc2cnc(Cl)c(NS(=O)(=O)N(C)C)c2)c2nc[nH]c2n1 (centres unmarked) | low value |
| Cc1nc(N)nc(-c2cc(CN3CCN(S(C)(=O)=O)CC3)cnc2Nc2cc[nH]n2)n1 | high value |
| Cc1nc(N)cc(-c2nc3ccccc3nc2Nc2cccc3[nH]ncc23)n1 | high value |
| Cc1nc(N)nc(-c2cccnc2Nc2cccc(OC(F)F)c2)n1 | high value |
| COc1ccc(Nc2ncc(-c3cncc(F)c3)cc2-c2nc(C)nc(N)n2)cn1 | low value |
| COc1ncc(Nc2ncc(C(C)(C)N)cc2-c2nc(C)nc(N)n2)cc1F | medium value |
| COc1ccc(Nc2ncc(NCc3ccccc3)cc2-c2nc(C)nc3[nH]cnc23)cn1 | medium value |
| COc1ccc(Nc2nc(-c3cccnc3)ccc2-c2nc(C)nc(N)n2)cn1 | medium value |
| COc1ccc(Nc2ncc(CN3CCN(S(C)(=O)=O)C[C@H]3C)cc2-c2nc(C)nc(N)n2)cn1 | low value |
| COc1cncc(Nc2ncc(C(C)(C)O)cc2-c2nc(C)nc(N)n2)c1 | low value |
| c1cnc(Nc2cccc3[nH]ncc23)c(-c2ncnc3[nH]cnc23)c1 | high value |
| Cc1nc(N)nc(-c2cc(C(C)(C)O)cnc2Nc2cncc(S(=O)(=O)c3ccccc3)c2)n1 | medium value |
| COc1ncc(Nc2ncc(C(OC(=O)c3cccc(Cl)c3)C(C)(C)O)cc2-c2nc(C)nc(N)n2)cc1F (centres unmarked) | low value |
| COc1ncc(Nc2ncc(C(=O)N3CCC(O)CC3)cc2-c2nc(C)nc(N)n2)cc1F | medium value |
| COc1ccc(Nc2ccccc2-c2nc(C)nc(N)n2)cn1 | high value |
| COc1ccc(Nc2ncc(CN[C@H](C)CO)cc2-c2nc(C)nc(N)n2)cn1 | high value |

meta.source: patent US8772480B2
